These data points were gathered from patent US4218460A.

Test system: Trypanosoma gambiense
protocol-details: Trypanosoma gambiense infection of mouse
Type: in vivo, mouse (NMRI strains)
run-conditions: 11×50 mg/kg perorally
reported-endpoint: acute action

Check the records and state acute action for Cn1c([N+](=O)[O-])cnc1C=Cc1nnc(-c2ccccc2)s1
no action

Check the records and state acute action for Cn1c([N+](=O)[O-])cnc1C=Cc1nncs1
no action

Check the records and state acute action for CCc1nnc(C(C)=Cc2ncc([N+](=O)[O-])n2C)s1
100%

Check the records and state acute action for Cn1c([N+](=O)[O-])cnc1C=Cc1nnc(-c2ccncc2)s1
no action

Check the records and state acute action for Cc1nnc(C=Cc2ncc([N+](=O)[O-])n2C)s1
100%

More entries:
Check the records and state acute action for CCc1nnc(C=Cc2ncc([N+](=O)[O-])n2C)s1
no action

---

System: Entamoeba histolytica
protocol-details: Entamoeba histolytica in vitro tube-dilution test
Assay type: cell-based
run-conditions: Entamoeba histolytica PN and Q strains, read-out: minimum inhibition concentration
# Lookup of reported MIC keyed by entry

Check the records and state MIC for Cn1c([N+](=O)[O-])cnc1C=Cc1nnc(-c2ccccc2)s1 [Example 2]
0.1 µg/mL

Check the records and state MIC for Cn1c([N+](=O)[O-])cnc1C=Cc1nncs1 [Example 6]
< 0.01 µg/mL

Check the records and state MIC for Cn1c([N+](=O)[O-])cnc1C=Cc1nnc(-c2ccncc2)s1 [Example 5]
< 0.01 µg/mL

More entries:
Check the records and state MIC for CCc1nnc(C=Cc2ncc([N+](=O)[O-])n2C)s1 [Example 7]
< 0.01 µg/mL

Check the records and state MIC for Cc1ncc([N+](=O)[O-])n1CCO [Metronidazol, reference compound]
0.1 µg/mL

Check the records and state MIC for CCc1nnc(C(C)=Cc2ncc([N+](=O)[O-])n2C)s1 [Example 10]
< 0.01 µg/mL

Check the records and state MIC for Cc1nnc(C=Cc2ncc([N+](=O)[O-])n2C)s1 [Example 1]
< 0.01 µg/mL
